System: NCI-H322M lung
Test: NCI-60 one-dose screen, 48 h (100 = growth as untreated, 0 = no growth, -100 = all killed)
Conditions: 10 µM unless noted
The panel holds about 83,000 compounds, 20% with a hit somewhere; the sample as a whole holds those more often. Activity calls are given as the source filed them. The calls were made as follows: active = growth percent below 10; inactive = the rest.
OBSERVED PROPERTY: growth

Example entries and their recorded answers appear below.
>  <MOLECULE>
C[C@H]1[C@H](C)CC[C@]2(C(=O)OCCOCCOCC[P+](c3ccccc3)(c3ccccc3)c3ccccc3)CC[C@]3(C)C(=CC[C@@H]4[C@@]5(C)CC[C@H](OC(=O)C(Cl)Cl)C(C)(C)[C@@H]5CC[C@]43C)[C@H]12

>  <growth>
27.8% (inactive)

$$$$
>  <MOLECULE>
OCCNc1nc(NCCO)nc(Nc2ccc(C3=NN(c4ccc(Cl)cc4)C(c4ccc(Cl)cc4)C3)cc2)n1 (configuration not stated)

>  <growth>
50.7% (inactive)

$$$$
>  <MOLECULE>
CN(CCC#N)C(=O)Nc1ccccc1

>  <growth>
107% (inactive)

$$$$
>  <MOLECULE>
CC(=O)OC[C@]12CC[C@@H](c3cn(Cc4ccc(Cn5cc([C@@H]6CC[C@]7(COC(C)=O)CC[C@]8(C)[C@H](CC[C@@H]9[C@@]%10(C)CC[C@H](OC(C)=O)C(C)(C)[C@@H]%10CC[C@]98C)[C@@H]67)nn5)cc4)nn3)[C@@H]1[C@H]1CC[C@@H]3[C@@]4(C)CC[C@H](OC(C)=O)C(C)(C)[C@@H]4CC[C@@]3(C)[C@]1(C)CC2

>  <growth>
97.6% (inactive)

$$$$
>  <MOLECULE>
CCSc1nc(Cl)c(C#N)c(-c2ccc(F)cc2)n1

>  <growth>
92% (inactive)

$$$$

IN: Would you mind telling me what growth value was observed for "Cc1ccc(CS/C(=C\c2ccc([N+](=O)[O-])cc2)C(=O)c2ccc(F)cc2)cc1" ?
OUT: 103% (inactive)

IN: Try this molecule next: "c1ccc(-c2n(Cc3ccc4ccccc4n3)cc[n+]2Cc2ccc3ccccc3n2)cc1"
OUT: 85.9% (inactive)

###

System: SK-MEL-28 melanoma
Test: NCI-60 one-dose screen, 48 h (100 = growth as untreated, 0 = no growth, -100 = all killed)
Conditions: 10 µM unless noted
Description: Growth inhibition of the SK-MEL-28 human tumor cell line is measured as a screen for anti-cancer activity. Cells are grown in 96 well plates and exposed to the test compound for 48 hours. Compounds are tested at a single concentration, which is 10^-5 M for most compounds. The reported endpoint is percent growth (GI% or GIPRCNT), where numbers from 0 - 100% represent growth inhibition, and numbers from -100% - 0 represent cell death. For example, a value of 40 represents 60% growth inhibition. […]
The panel holds about 83,000 compounds, 20% with a hit somewhere; the sample as a whole holds those more often.
OBSERVED PROPERTY: growth (%)
Give the number; % is assumed, so skip it.

>  <CPD SMILES>
Nc1c(C(=O)Nc2cccc3ccccc23)sc2nc3c(cc12)CCCCCC3

>  <QUANTITATIVE RESULT>
65.8

$$$$

IN: Would you mind telling me what growth value was observed for "O=C(CCl)N1CCCc2ccccc21" ?
OUT: 103

IN: Try this compound next: "Oc1c(CCl)cc(Cl)cc1Cc1cc(Cl)cc(Cc2cc(Cl)cc(CCl)c2O)c1O"
OUT: 30

###

growth for assorted compounds
Test system: SK-MEL-2 melanoma
Assay: NCI-60 one-dose screen, 48 h (100 = growth as untreated, 0 = no growth, -100 = all killed)
Details: 10 µM unless noted
This is part of a sample that, as a whole, favours compounds with a hit. Of some 83,000 tested, about 20% had one in any assay.
Give the number; % is assumed, so skip it.

>  <COMPOUND>
CCCCc1n(Cc2ccc3ccccc3c2)c2ccccc2[n+]1Cc1ccc2ccccc2c1

>  <growth, %>
-73.5

$$$$
>  <COMPOUND>
O=S(=O)(O)c1ccc(N=NSc2ccc3ccccc3c2)cc1

>  <growth, %>
92.4

$$$$
>  <COMPOUND>
O=C1Nc2ccc(Cl)cc2/C1=N/c1nc(-c2ccc(F)cc2)cs1

>  <growth, %>
39.9

$$$$
>  <COMPOUND>
CCOC(=O)c1ccc(Nc2ncnc3ccc(NC(=O)c4ccccc4)cc23)cc1

>  <growth, %>
86.6

$$$$
>  <COMPOUND>
CC(=O)c1ccc(NC(=O)CSc2nnc(-c3cc(-c4ccc(Cl)cc4)nc4ccccc34)o2)cc1

>  <growth, %>
87.3

$$$$
>  <COMPOUND>
COc1ccc(C(C)c2cc(OC)c(OC)c(OC)c2)cc1 (stereo not drawn)

>  <growth, %>
33.6

$$$$
>  <COMPOUND>
COC1=CC=CC2(OC)C3(O)CCCc4cccc(c43)N3C(=O)COC132 (stereo not drawn)

>  <growth, %>
93.9

$$$$

IN: Would you mind telling me what growth value was observed for "Nc1ccc2c(c1)C(=O)C(=O)c1c-2nc2ccccn12" ?
OUT: -32.1

###

Tested on: OVCAR-5 ovarian
Assay: NCI-60 one-dose screen, 48 h
Settings: 10 µM unless noted
The panel holds about 83,000 compounds, 20% with a hit somewhere; the sample as a whole holds those more often. Calls of active or inactive are those of the source. The calls were made as follows: active = growth percent below 10; inactive = the rest.
Outcomes you can answer with include only these: active, inactive

A selection of reference data follows.
>  <COMPOUND>
N#CC1C(c2ccc(Cl)cc2)=Nc2c(c(-c3ccccc3)nn2-c2ccccc2)C12C(=O)Nc1ccc(Cl)cc12 (centres undefined)

>  <ASSAYED SYSTEM>
OVCAR-5 ovarian

>  <GROUP>
inactive

$$$$
>  <COMPOUND>
N#Cc1ccc(N2Cc3cc(Cl)ccc3OC3=C2C(=O)N(Cc2ccccc2)C3=O)cc1

>  <ASSAYED SYSTEM>
OVCAR-5 ovarian

>  <GROUP>
active

$$$$
>  <COMPOUND>
O=C(Nc1cc(=O)[nH]c(=O)[nH]1)C(Cl)Cl

>  <ASSAYED SYSTEM>
OVCAR-5 ovarian

>  <GROUP>
inactive

$$$$
>  <COMPOUND>
COc1ccc2[nH]c(=O)c(/C=C/C(=O)/C=C/c3ccc(O)c(OC)c3)cc2c1

>  <ASSAYED SYSTEM>
OVCAR-5 ovarian

>  <GROUP>
inactive

$$$$
>  <COMPOUND>
COc1ccc(C(=S)c2cc(OC)c(OC)c(OC)c2)cc1OC(=O)CCl

>  <ASSAYED SYSTEM>
OVCAR-5 ovarian

>  <GROUP>
inactive

$$$$

IN: Hi, sorry to bother you, what did the test record for "CSc1nc(-c2ccc(F)cc2)c(C#N)c(N2CCOCC2)n1" ?
OUT: inactive

IN: Try this compound next: "CC(C)(C)c1ccc(O)c(Cc2cc(C(C)(C)C)ccc2O)c1"
OUT: inactive

IN: Try this compound next: "O=C(CSC(=S)N1CCCCC1)Nc1ccccc1"
OUT: inactive

IN: Try this compound next: "CCN1CCC[C@H]1c1cc(O)c2c(c1OC)C[C@H]1C[C@H]3[C@H](N)C(=O)C(C(N)=O)=C(O)[C@@]3(O)C(=O)C1=C2O"
OUT: active

IN: Try this compound next: "C/C(=C\c1cnc(C)s1)[C@@H]1C[C@@H]2O[C@@H]2CCC[C@H](C)[C@H](O)[C@@H](C)C(=O)C(C)(C)[C@@H](O)CC(=O)O1"
OUT: inactive

IN: Try this compound next: CC1(C)Cc2c(Br)c(Br)c(Br)c(OCC(O)CN3CCOCC3)c2O1 (centres undefined)
OUT: inactive

IN: Try this compound next: "CCCCn1c(=O)c(/C=C/C(=O)/C=C/c2cc3ccccc3n(CCCC)c2=O)cc2ccccc21"
OUT: inactive

IN: Try this compound next: "CCC[S@](=O)c1ccc2nc(NC(=O)OC)[nH]c2c1"
OUT: inactive

IN: Try this compound next: c1ccc2c3c([nH]c2c1)C(c1ccc(C2NCCc4c2[nH]c2ccccc42)cc1)NCC3 (centres undefined)
OUT: inactive

###

Tested on: COLO 205 colon
Experiment: NCI-60 one-dose screen, 48 h
Conditions: 10 µM unless noted
About 83,000 compounds went through this panel and 20% of them were active in at least one assay; those are over-represented in the sample as a whole. Calls of active or inactive are those of the source. How the source made its calls: active means growth percent below 10; inactive means the rest.
Outcomes you can answer with include only these: 1 (yes) for active, 0 (no) for inactive

A selection of reference data follows.
>  <COMPOUND>
C=C1C(=O)O[C@H]2[C@H]1CC/C(COC(=O)NCC(=O)Nc1ccc(OC)c(C(N)=O)c1O)=C\CC[C@@]1(C)O[C@@H]21

>  <GROUP>
0 (no)

$$$$
>  <COMPOUND>
CCOC(=O)NC(Cc1ccccc1)c1ccccc1 (stereo not drawn)

>  <GROUP>
0 (no)

$$$$
>  <COMPOUND>
O=C(O)COc1ccc2c(=O)c3sc4c(=O)c5ccccc5c(=O)c4c3c(=O)c2c1

>  <GROUP>
1 (yes)

$$$$
>  <COMPOUND>
CCCNc1nc(C)[nH]c(=O)c1S

>  <GROUP>
0 (no)

$$$$
>  <COMPOUND>
Cc1nc2sc(C(=O)Nc3cccc(Cl)c3C)c(N)c2cc1C(C)O (stereo not drawn)

>  <GROUP>
1 (yes)

$$$$

IN: Hi, sorry to bother you, what did the test record for "COc1ccc(C(=O)c2cc(OC)c(OC)c(OC)c2)cc1OC(=O)CCl" ?
OUT: 0 (no)

IN: Try this compound next: O=C1NN(c2ccccc2)C(c2ccc(Cl)cc2)N2CCC[C@H]12 (stereo partly drawn)
OUT: 0 (no)

IN: Try this compound next: "COc1ccc2nc3nc4ccc[nH]c4cc3c2c1"
OUT: 0 (no)

IN: Try this compound next: "COc1cc(-c2nn(-c3ccc(Br)cc3)cc2CO)ccc1O"
OUT: 0 (no)

IN: Try this compound next: "COc1ccc2oc(=O)cc(-c3c(C#N)c(N)n4nc(N)c(C#N)c4c3C#N)c2c1"
OUT: 0 (no)

IN: Try this compound next: "COc1ccc(/C=C/C(=O)/C=C(/C=C/c2ccc(OC)c(OC)c2)OB(F)F)cc1OC"
OUT: 1 (yes)

IN: Try this compound next: "NS(=O)(=O)c1ccc(N2Cc3cc(Cl)ccc3OC3=C2C(=O)N(CC2CCCCC2)C3=O)cc1"
OUT: 1 (yes)

IN: Try this compound next: CC1(c2ccccc2Cl)NC(=O)NC1=O (stereo not drawn)
OUT: 0 (no)
